# Test system: THRa homodimer (NR concentration 90 nM)
# assay_explanation: PBM binding z-score (relative to random genomic background probes); higher = stronger binding; sequences stand for … in GC…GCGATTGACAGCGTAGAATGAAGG
Kindly return TRUE if reported PBM binding z-score is no lower than 0.7; return FALSE if it is lower.

The following sequences have reported results that may help.
[[record]]
biopolymer_sequence = "ATCTCTAGGTAACCAAGTTCAGTGACTGCCGAAC"
discrete_label = "TRUE"

[[record]]
biopolymer_sequence = "TCTTGTACATCAACAGGAGGTTAAGAAAGATCGA"
discrete_label = "FALSE"

[[record]]
biopolymer_sequence = "ATCTCTAGGTAAAAGTTCAGCGAATCCCGAGGAT"
discrete_label = "FALSE"


Given ATATGTAGGATAAGGGTCATTCAGGTTGGTTCGC , state whether its PBM binding z-score is at least 0.7.
TRUE

Given GATACAGGGTAAAGGCCAGAGTACGCGTATTGAT , state whether its PBM binding z-score is at least 0.7.
FALSE

Given TATACAGGGTCAAAGGACAGAGTACGAATGTCGA , state whether its PBM binding z-score is at least 0.7.
TRUE

Given ATCACTAGGTAAAAGTTCAGTGAATCCCGAGGAT , state whether its PBM binding z-score is at least 0.7.
FALSE

Given AATACAGGATCATCGTAGGCCAGAGTACGCACAG , state whether its PBM binding z-score is at least 0.7.
FALSE

====

# Test system: PPARg DBDmut IVT, anti-PPARg (DBD mutation: PPARg1 K132A/R137A, NR concentration 270 nM)
# assay_explanation: PBM binding z-score (relative to random genomic background probes); higher = stronger binding; sequences stand for … in GC…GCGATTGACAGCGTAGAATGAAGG
parameter_measured: PBM binding z-score

Take a look at these entries with their results.
[[record]]
biopolymer_sequence = "TCATATAGATAATACAGGTGAAAGTCGGCATCTA"
target_under_test = "PPARg DBDmut IVT, anti-PPARg (DBD mutation: PPARg1 K132A/R137A, NR concentration 270 nM)"
experimental_value = 1.15

[[record]]
biopolymer_sequence = "AGAATGATGTTACCAAAGATCAGGGAAACGCTTG"
target_under_test = "PPARg DBDmut IVT, anti-PPARg (DBD mutation: PPARg1 K132A/R137A, NR concentration 270 nM)"
experimental_value = 0.116

[[record]]
biopolymer_sequence = "TCTCCTAGGTCAACGATGGTCAGCTAATCTGCTA"
target_under_test = "PPARg DBDmut IVT, anti-PPARg (DBD mutation: PPARg1 K132A/R137A, NR concentration 270 nM)"
experimental_value = 1.02

[[record]]
biopolymer_sequence = "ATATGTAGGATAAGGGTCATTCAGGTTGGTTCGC"
target_under_test = "PPARg DBDmut IVT, anti-PPARg (DBD mutation: PPARg1 K132A/R137A, NR concentration 270 nM)"
experimental_value = 0.978

[[record]]
biopolymer_sequence = "GAATATAGGTAATACAAGGTGAAAGTCCGATTGT"
target_under_test = "PPARg DBDmut IVT, anti-PPARg (DBD mutation: PPARg1 K132A/R137A, NR concentration 270 nM)"
experimental_value = 1.21

[[record]]
biopolymer_sequence = "ATACCAAGGTGATCGTGAGGTCCTTGATACTAAC"
target_under_test = "PPARg DBDmut IVT, anti-PPARg (DBD mutation: PPARg1 K132A/R137A, NR concentration 270 nM)"
experimental_value = -0.0653

[[record]]
biopolymer_sequence = "ATCCCTAGGTAAAAGTTCAGTGAATCCCGAGGAT"
target_under_test = "PPARg DBDmut IVT, anti-PPARg (DBD mutation: PPARg1 K132A/R137A, NR concentration 270 nM)"
experimental_value = 0.662

[[record]]
biopolymer_sequence = "AACTCTAGGTAAAGTTCAGTGAAAGATCGATAGA"
target_under_test = "PPARg DBDmut IVT, anti-PPARg (DBD mutation: PPARg1 K132A/R137A, NR concentration 270 nM)"
experimental_value = 0.266

[[record]]
biopolymer_sequence = "GCAGACAGGTGAAACGCAGGTAACTCAGGGTGGC"
target_under_test = "PPARg DBDmut IVT, anti-PPARg (DBD mutation: PPARg1 K132A/R137A, NR concentration 270 nM)"
experimental_value = -0.587

[[record]]
biopolymer_sequence = "CGTCCAAGGTCAAGGTCAGTGGAAGAGACTCGAA"
target_under_test = "PPARg DBDmut IVT, anti-PPARg (DBD mutation: PPARg1 K132A/R137A, NR concentration 270 nM)"
experimental_value = -0.109


Tell me the measured PBM binding z-score of TCATATAGGTAATACTGGTGAAAGTCGGCATCTA , please.
0.717

Tell me the measured PBM binding z-score of ATCTCTAGGTAAAGTTAGTTCAGTGAATGCAAAT , please.
0.811

Tell me the measured PBM binding z-score of GGAACGAGGGCAAAGTTGAGAGCATCTGTCGACG , please.
0.305

Tell me the measured PBM binding z-score of CAAACTAGGTCAAGAGGTCAACGTCCGCTTCCCG , please.
2.14

Tell me the measured PBM binding z-score of ATCTGTAGGTAAAGATAGTTCAGTGAATGCAAAT , please.
0.832

Tell me the measured PBM binding z-score of GCTATTAGCTGAAAGGGCAACCGAATGATTCTCG , please.
-0.672

Tell me the measured PBM binding z-score of TAGCCTAGGTCATGGGTCAGTATACCACGCGAAC , please.
0.834

====

# System: VDR homodimer (NR concentration 270 nM)
# assay_explanation: PBM binding z-score (relative to random genomic background probes); higher = stronger binding; sequences stand for … in GC…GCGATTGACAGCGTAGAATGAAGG
parameter_measured: PBM binding z-score
Write the number on its own, no unit after it.

Take a look at these entries with their results.
[[record]]
biopolymer_sequence = "TAGCCTAGGACATTCAGGGGCCAGTATAGAAAGC"
parameter_measured = "PBM binding z-score"
experimental_value = -0.236

[[record]]
biopolymer_sequence = "ATCTCTACGTAAAGTTCAGTGAAAGATCGATAGA"
parameter_measured = "PBM binding z-score"
experimental_value = 2.27


Request body: readout PBM binding z-score, system VDR homodimer (NR concentration 270 nM), query CGAACTAGGTCAGACCAGGACAGTGAAGGATGAT . Return the value.
-0.102

====

# Test system: FXR:RXRa (NR concentration 270 nM, RXRa partner concentration 90 nM)
# assay_explanation: PBM binding z-score (relative to random genomic background probes); higher = stronger binding; sequences stand for … in GC…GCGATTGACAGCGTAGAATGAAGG
// reported PBM binding z-score per item
Write the number on its own, no unit after it.

[[record]]
biopolymer_sequence = "TCTGCTAGGTCAGTTGGTCAGCTTACGAGCTGCC"
experimental_value = 0.94

[[record]]
biopolymer_sequence = "TCTAGTTGGTCAAAGGTTACACACTCGAAATGCG"
experimental_value = 2.63

[[record]]
biopolymer_sequence = "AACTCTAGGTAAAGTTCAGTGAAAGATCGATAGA"
experimental_value = 0.741

[[record]]
biopolymer_sequence = "TCTGATAGGTCAACGATGGTCAGCTAATCTGCTA"
experimental_value = 5.29

[[record]]
biopolymer_sequence = "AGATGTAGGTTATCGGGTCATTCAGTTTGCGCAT"
experimental_value = 3.31


Tell me the measured PBM binding z-score of AGAACGAGGTTAAGATCAGGGAAACAGAATACAT , please.
2.1

====

// reported PBM binding z-score per item
# System: PPARg DBDmut:RXRa IVT, anti-PPARg (DBD mutation: PPARg1 K132A/R137A, NR concentration 270 nM, RXRa partner concentration 90 nM)
# assay_explanation: PBM binding z-score (relative to random genomic background probes); higher = stronger binding; sequences stand for … in GC…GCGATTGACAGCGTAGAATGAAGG
Write the number on its own, no unit after it.

Take a look at these entries with their results.
[[record]]
biopolymer_sequence = "GCTTGTATATCAAGGTTAAGAAAGACTAAGCTAA"
experimental_value = 0.195

[[record]]
biopolymer_sequence = "GGAACAAGGGCATTCGAGTTGATAGCATGGCGAT"
experimental_value = -0.248

[[record]]
biopolymer_sequence = "ACAGACAGGTGATGAAGGCAACTCAGGCTATCAT"
experimental_value = 0.175

[[record]]
biopolymer_sequence = "TAGCCTAGCTCAGATCGGGCCAGTATACGCTATA"
experimental_value = -0.837

[[record]]
biopolymer_sequence = "ATCTAAAGGTCGAGGTGAGTATAGAGAAAGGGAA"
experimental_value = 1.38

[[record]]
biopolymer_sequence = "ACTGTTAGTTGACTTAGGGCAACCGATACGACGC"
experimental_value = 0.909


Tell me the measured PBM binding z-score of GCGACTGGGGCAAAGCAGGTGACCATAAGGTTGG , please.
-0.66

Tell me the measured PBM binding z-score of CCTTACGGGTAAAGGTTATAGCACGGGTGGTACG , please.
-0.079
